Would you kindly list GI50 for each of these molecules?
- Test system: NCI/ADR-RES ovarian
- Assay overview: NCI tumour cell line growth inhibition, 48 h

[[record]]
smiles = "[Cu].c1ccc2c(c1)C1=NC2=NC2=NC(=NC3=NC(=NC4=NC(=N1)c1ccccc14)c1ccccc13)c1ccccc12"
assay_endpoint = "GI50"
observed_result = "> 100 µM"

[[record]]
smiles = "Oc1ccc(CCNc2nc3ccccc3c3[nH]c4ccccc4c23)cc1O"
assay_endpoint = "GI50"
observed_result = "9.15 µM"

[[record]]
smiles = "N#Cc1cnc2ccc(NCc3cnc[nH]3)cc2c1Nc1ccc(F)c(Cl)c1"
assay_endpoint = "GI50"
observed_result = "> 100 µM"


Here is the next item to consider.
Problem: Determine from records and report GI50 for "COc1ccccc1C1C(C#N)=C(N)SC(N)=C1C#N"
Result: 43.9 µM

* * *

- Test system: NCI/ADR-RES ovarian
- Assay overview: NCI tumour cell line growth inhibition, 48 h; in the data active = GI50 below about 0.43 µM; inactive = the rest
Outcomes you can answer with include only these: yes (active), no (inactive)

[[record]]
molecule = "COc1cccc2c1C(=O)c1c(O)c3c(c(O)c1C2=O)C[C@@](O)(/C(C)=N/NC(=O)c1cccc([N+](=O)[O-])c1)C[C@@H]3OC1CC(N)C(O)C(C)O1 (stereo partly drawn)"
class_assignment = "no"

[[record]]
molecule = "CN1CCC2(CC1)C(=O)Nc1cc(NC(=O)c3ccc4c(c3)C[C@@H]3C(C)(C)[C@H](O)[C@H](F)C[C@@]3(C)O4)ccc12"
class_assignment = "no"

[[record]]
molecule = "COc1cc2c(cc1OCCCCCOc1ccc(-c3nc4ccccc4s3)cc1)N=C[C@@H]1CCCN1C2=O"
class_assignment = "no"

[[record]]
molecule = "Clc1ccc2c(NCCCCNc3nc(N4CCOCC4)nc4ccccc34)ccnc2c1"
class_assignment = "no"

[[record]]
molecule = "c1ccc2[nH]c(-c3ccc(Nc4nc(N5CCCC5)nc5[nH]ncc45)cc3)nc2c1"
class_assignment = "yes"


Problem: Any idea what this test logged for "CCCN1CCC(Oc2cc(Nc3nc(Nc4cccc(F)c4C(N)=O)c4cc[nH]c4n3)c(OC)cc2Cl)CC1" ?
Result: no

Problem: For "Cc1cc2c(cc1Cl)SC(=Nc1ccc(Cl)cc1)N(S(=O)(=O)c1ccc(Br)s1)S2(=O)=O" , which call appears in the assay record?
Result: no

Problem: Hello, I am checking results. What call was entered for "CCCCCCCCCCCC1=NC(C)(C)CN1C(C)C" ?
Result: no

* * *

- Tested on: HT29 colon
- Assay overview: NCI tumour cell line growth inhibition, 48 h
Where a SMILES comes first, the peptide text is derived from it. [ ]: non-standard residue; d: D form. ξ: configuration not given here. Pentanoyl(2-O,4-OH,5-Cl) = O=C(O)C(O)CC(O)CCl; Ile(3ξ) = CCC(C)[C@H](N)C(=O)O; NMeV = CN[C@H](C(=O)O)C(C)C; NMeA = CN[C@@H](C)C(=O)O; βAla = NCCC(=O)O
Give measured TGI for each item. Keep answers brief.

Completed entries (count: 5):
[[record]]
molecule = "CC1COS(=O)N1c1ccccc1 (stereo not given)"
observed_result = "> 100 µM"

[[record]]
molecule = "O=C1C2C3SC(c4cc5ccccc5cc43)C2C(=O)N1c1ccccc1 (stereo not given)"
observed_result = "> 100 µM"

[[record]]
molecule = "CCC(C)[C@@H]1NC(=O)[C@@H]2CCCN2C(=O)C(CC(O)CCl)OC(=O)CCNC(=O)[C@H](C)N(C)C(=O)[C@H](C(C)C)N(C)C1=O (stereo not given in full) (cyclo([Ile(3ξ)][NMeV][NMeA][βAla][Pentanoyl(2-O,4-OH,5-Cl)]P))"
observed_result = "> 100 µM"

[[record]]
molecule = "O=C(CN1CCCCC1)c1ccc2[nH]c(=O)oc2c1"
observed_result = "> 100 µM"

[[record]]
molecule = "CC(Nc1cccc(Cl)c1)c1ccncc1 (stereo not given)"
observed_result = "> 100 µM"


For each entry beneath this line, provide reported TGI.
1. CC(NC(=O)c1ccc(Cl)c(Cl)c1)c1ccc(-c2ccccc2)cc1 (stereo not given)
2. Cc1cc2c3c(c1)S(=O)(=O)c1cc(Cl)ccc1N3CCC2
3. Cc1cc(NC(=O)NCCCOc2ccc(N3C(N)=NC(N)=NC3(C)C)cc2Cl)ccc1S(=O)(=O)F
4. CC(=O)N1N=C(c2ccccc2)NC(=O)C1c1cc(C)c(O)c(C)c1 (stereo not given)
5. O=C(O)CSC1=NCCN1

Result:
1. > 100 µM
2. > 100 µM
3. 53.9 µM
4. > 100 µM
5. > 100 µM

* * *

- Test system: SK-MEL-5 melanoma
- Assay overview: NCI tumour cell line growth inhibition, 48 h
Would you kindly list TGI for each of these molecules?

Previously resolved entries follow.
[[record]]
molecule = "COc1cc(OC)c(OC)cc1/C=C/c1ccccn1"
observed_result = "> 10 µM"

[[record]]
molecule = "O=S(=O)(c1ccccc1)N1CCC1c1ccccc1 (stereo unspecified)"
observed_result = "> 100 µM"

[[record]]
molecule = "N#Cc1cnc2ccc(NCc3cnc[nH]3)cc2c1Nc1ccc(F)c(Cl)c1"
observed_result = "> 100 µM"


Provide the reported TGI of each entry below, same order.
1. C/C(=C\CCC1=CC(=O)OC1)CCC1C2C(=O)CC(C)[C@@]3(C)CC[C@]1(C)[C@@]23C (stereo partly specified)
2. O=C(c1ccccc1)c1nc2ccc(Cl)cc2cc1C(Br)Br
3. Cc1ccc(/C=C/C(=O)c2ccc(F)cc2)s1

Result:
> 10 µM
2.01 µM
24.9 µM

* * *

- Tested on: MDA-N
- Assay overview: NCI tumour cell line growth inhibition, 48 h
Assign TGI to each entry below.
One number for each entry, in µM.

# map each compound to its TGI
1. c1ccc(CCCN2C3CCC2CN(CCOC(c2ccccc2)c2ccccc2)C3)cc1
2. COc1cc(/C=C2\CC3C4CC=C5C[C@@H](O)CC[C@]5(C)C4CC[C@]3(C)\C2=N\O)cc(OC)c1OC (stereo partly specified)

Result:
1. 25.9
2. 69.6

List reported TGI for each of these compounds:
1. CN(C)CCNc1c(O)c2c(c(O)c1Cl)C(=O)C=CC2=O
2. CN(C)CC1CCC/C(=C\c2ccc(Cl)c(Cl)c2)C1=O (stereo unspecified)
3. Fc1ccc(/C=C2\COCC3=C2NC(=S)NC3c2ccc(F)cc2)cc1 (stereo unspecified)

Result:
4.64
12.7
34.2

* * *

For each entry below, report its TGI value.
- Test system: T-47D breast
- Assay overview: NCI tumour cell line growth inhibition, 48 h

[[record]]
molecule = "CCCCOc1ccc(/C=C/C2=[N+](CCO)CCO2)cc1"
target_under_test = "T-47D breast"
observed_result = "82.8 µM"

[[record]]
molecule = "CC(Nc1cccc(Cl)c1)c1ccncc1 (centres undefined)"
target_under_test = "T-47D breast"
observed_result = "> 100 µM"

[[record]]
molecule = "COc1cc(OC)c(OC)cc1/C=C/c1ccccn1"
target_under_test = "T-47D breast"
observed_result = "> 10 µM"


Take each entry in turn and give its TGI.
1. CCOC(=O)c1sc2nc(=S)[nH]c(NC(N)=S)c2c1C
2. COc1cccc(C2CC(C)(O)Oc3cc4c(cc32)OCO4)c1 (centres undefined)
3. C[C@]12CC[C@H]3[C@@H](CC=C4C[C@@H](N5CCCC5)CC[C@@]43C)[C@@H]1C/C(=C\c1ccc([N+](=O)[O-])cc1)[C@@H]2O
4. CCCN1CCC(Oc2cc(Nc3nc(Nc4cccc(F)c4C(N)=O)c4cc[nH]c4n3)c(OC)cc2Cl)CC1
5. Cc1cc[c]([Sb]2[O]C(CO)C(C(O)C(O)C(=O)O)[O]2)cc1 (centres undefined)

Result:
1: 37 µM; 2: > 100 µM; 3: 46.9 µM; 4: 3.12 µM; 5: > 100 µM

List reported TGI for each of these molecules:
1. Cc1cc(C)c2c(-c3ccccc3)cc(=O)[nH]c2c1
2. COc1nc2ncc([C@@H](OC(C)=O)[C@@H](COC(C)=O)OC(C)=O)nc2c(=O)n1C
3. COC(=O)[C@H](Cc1ccccc1)NC(=O)N(CCN(CCC#N)C(=O)N[C@H](C(=O)OC)C(C)C)c1ccccc1
4. O=c1[nH]c2c(C(F)(F)F)c(Cl)c(-c3ccccc3)nc2o1
5. CC(=O)Oc1ccc2c(c1)O/C(=C\c1ccc(N(C)C)cc1)C2=O
6. CN(C)CC1CCC/C(=C\c2ccc(Cl)c(Cl)c2)C1=O (centres undefined)

Result:
1. > 100 µM
2. > 100 µM
3. > 100 µM
4. 90.9 µM
5. > 100 µM
6. 5.71 µM

* * *

- System: MALME-3M melanoma
- Assay overview: NCI tumour cell line growth inhibition, 48 h
Assay endpoint: TGI (µM)
One number for each entry, in µM.

Items follow; give TGI for each.
1. O=C(Nc1ccccc1/C=C/c1n[nH]c2ccccc12)c1ccccc1
2. CN1CCN(c2cc(F)c(NC3=C(Cl)C(=O)c4ncccc4C3=O)c(F)c2)CC1
3. COc1cc(/C=C2\CC3C4CC=C5C[C@@H](O)CC[C@]5(C)C4CC[C@]3(C)\C2=N\O)cc(OC)c1OC (stereo partly specified)

Result:
1. 12
2. 3.12
3. 50

Respectfully, I request TGI for each entry included below.
1. CCOC(=O)c1nc(SC)sc1NC(=O)c1ccc(OC)cc1
2. C[C@]12CC[C@H]3[C@@H](CC=C4C[C@@H](N5CCCC5)CC[C@@]43C)[C@@H]1C/C(=C\c1ccc([N+](=O)[O-])cc1)[C@@H]2O
3. CN(C)CCNc1c(O)c2c(c(O)c1Cl)C(=O)C=CC2=O
4. N#Cc1cnc2ccc(NCc3cnc[nH]3)cc2c1Nc1ccc(F)c(Cl)c1
5. CCCCOC(=O)Nc1ccc(S(=O)(=O)Nc2c(Cl)cccc2Cl)cc1
6. Cc1ccc2[nH]c3c(c2c1)C1CCC(C(C)(C)C)CC1C1C(=O)N(c2ccc(Oc4ccccc4)cc2)C(=O)C31 (stereo unspecified)

Result:
1. 88.8
2. 32.1
3. 3.64
4. 36.1
5. 62.7
6. 41.9
